Value source: patent US4560758A

# Percent Survival listing for each entry below
System: mouse hepatitis virus
Test: Antiviral assay - hepatitis in mice
Format: in vivo
Conditions: 25 mg/Kg i.p.; once daily for 3 days; day 21; control 5% (Examples 11, 23), 6% (25, 26)
Structures can show the parent of a compound that is named as a salt.
assay_endpoint: Percent Survival (%)

>  <compound>
COC1(OC)CCCN2C1=NCC2c1ccccc1 (stereo not shown) [Example 26, hydrochloride]

>  <target_or_test_system>
mouse hepatitis virus

>  <assay_endpoint>
Percent Survival

>  <assay_result>
0

$$$$
>  <compound>
c1ccc(SC2CCCN3CC(c4ccccc4)N=C23)cc1 (stereo not shown) [Example 11]

>  <target_or_test_system>
mouse hepatitis virus

>  <assay_endpoint>
Percent Survival

>  <assay_result>
40

$$$$
>  <compound>
COC1(OC)CCCN2CC(c3ccccc3)N=C21 (stereo not shown) [Example 23, hydrochloride]

>  <target_or_test_system>
mouse hepatitis virus

>  <assay_endpoint>
Percent Survival

>  <assay_result>
50

$$$$
>  <compound>
COC1(OC)CCN2CC(c3ccccc3)N=C21 (stereo not shown) [Example 25, sulfate]

>  <target_or_test_system>
mouse hepatitis virus

>  <assay_endpoint>
Percent Survival

>  <assay_result>
0

$$$$
